Where do the numbers come from? From the supplement of paper PMC10201428.

B1: library; a variant is named by its letters at N, in order (parent)
chain: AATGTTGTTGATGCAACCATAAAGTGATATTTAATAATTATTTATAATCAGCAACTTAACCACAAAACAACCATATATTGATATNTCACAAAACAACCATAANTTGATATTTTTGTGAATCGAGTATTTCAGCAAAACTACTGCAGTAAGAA

Variants of: B1
Protocol details: relative integration efficiency (T-RL orientation) vs wild-type transposon end (log2 (normalized fold change)); transposon end mutated: left end; higher = more efficient transposition
Particulars: with VchCAST RNA-guided transposition machinery (E. coli BL21(DE3) host, lacZ target)
Returns met if the recorded relative integration efficiency (log2) is greater than or equal to -0.1, and not met otherwise.

// query Would you say CG A119G shows relative integration efficiency (log2) at minimum -0.1?
// result met

// query Continue with CG C17G C18G
// result not met

// query Continue with CG G115T T116G
// result met

// query Continue with CG A64C A65C
// result not met

// query Continue with CG T32A A77C T86G
// result not met

// query Continue with CG A2C T3G
// result met

// query Continue with CG A65C A66C
// result met

// query Continue with CG A118T
// result met

// query Continue with TA G24A T30A T76A T78G C87A A102T T111C T113C
// result met

// query Continue with GG A83T T84A T86A
// result not met

// query Continue with CG T25G G26T
// result not met

// query Continue with CG T20C
// result not met

// query Continue with CG T76G A77C
// result not met

// query Continue with CG T12A G13A T32A A77C T86G
// result met

// query Continue with CG T105C
// result not met

// query Continue with CG T12A T30A T31C T32A A77C T86G
// result not met

// query Continue with CG A21T A22T
// result not met

// query Continue with CG A95T A96T
// result not met

// query Continue with CG A109C T110G
// result not met

// query Continue with CG T114G
// result met

// query Continue with CG C14A A15C
// result met

// query Continue with CG A66C A67C
// result met

// query Continue with CG C63T
// result met

// query Continue with CA A22T G24T T31C A33C A102T T111C T113C
// result not met

// query Continue with TA A16C G24T T30A A70C T76A T86G A96C T112G T113C
// result not met

// query Continue with CG A19C A73C A99C
// result not met

// query Continue with TA A22T G24T T31C A33C T76A A77G C87T A96C T112G T113C
// result not met

// query Continue with CG A66T
// result met

// query Continue with CG A34C T35C A36G T38C A40G T42C A44G A62G A65G A66C
// result not met

// query Continue with CG A69C A70C C71A C72A
// result not met

// query Continue with CG T32A A33T T86A C87G T112A T113A
// result not met

// query Continue with TA A22T G24T T31C A33C A70C T76A T86G A96C T110A T113A
// result not met

// query Continue with CG C121A A123G G124A T129C G132A A134C A135T A136T A137C C138A C141G G143T C144T
// result met

// query Continue with TA A23G G24T A33T T76A A77G C87T T104A T110A T113A
// result not met

// query Continue with TA G24A T30A T76A T78G C87A T104G T113A
// result not met

// query Continue with TA A22T G24T T31C A33C T76A T78G C87A A102T T111C T113C
// result not met

// query Continue with CG A59C C60A C61A A62C
// result met

// query Continue with CA A23G G24T A33T T104G T113A
// result met

// query Continue with TA A16C G24T T32G A33C T76A A77G C87T T104G T113A
// result not met

// query Continue with TG A16C G24T T32G A33C T76A T78A T84A C87A
// result not met

// query Continue with CG T116A G117C
// result met

// query Continue with CG A88C
// result not met

// query Continue with CG G26A
// result not met

// query Continue with CG C63A A64C
// result not met

// query Continue with CG T38G
// result not met

// query Continue with CG A70T
// result not met

// query Continue with CG T42C
// result met

// query Continue with CG A19T A73T A99T
// result not met

// query Continue with CG C72G
// result not met

// query Continue with CG T3G G4T
// result met

// query Continue with CG C49G G51T C52G C55T A58T A59T C60A C61T A62G
// result not met

// query Continue with TA G24A T30A T76A T78A T84A C87A T104G T113A
// result not met

// query Continue with TG A16C G24T T30A A70C T76A T86G
// result met

// query Continue with CG T9A G10C
// result not met

// query Continue with AG T86G
// result not met

// query Continue with CG G80C A81T
// result not met

// query Continue with TA A22T G24T T31C A33C A70C T76A T84A C87A T104G T113A
// result not met

// query Continue with CG T82G
// result not met

// query Continue with CG T38A T42A T45A A47T C49A G51T C52T A54T C55T T56A T57A A59T
// result not met

// query Continue with CG G24C T25A
// result not met

// query Continue with CG C68A A69C
// result not met

// query Continue with CG C14G A15T
// result not met

// query Continue with CG C71A C72A A73C T74G
// result not met

// query Continue with CG T120G
// result not met

// query Continue with CG T6C
// result not met

// query Continue with CG T32G A33C T86G C87A T112G T113G
// result not met

// query Continue with TG A16C G24T T30A T76A T78A T84A C87A
// result met

// query Continue with TA G24A T30A A70C T76A T86G A102T T111C T113C
// result not met

// query Continue with CG C71T
// result not met

// query Continue with CG T6A G7C
// result not met

// query Continue with CG T28G A29C T30G T31G
// result not met

// query Continue with CG A66C C68A A69C A70C C71A C72T A77T T78G T79A G80T A83C T86A C87A
// result not met

// query Continue with CG T31C
// result met

// query Continue with CG A29C A83C A109C
// result not met

// query Continue with CG T41G T42G
// result met

// query Continue with CG G24A T30A
// result met

// query Continue with AG T30G T31G T32G A33C T84G T86G C87A T110G T111G T112G T113G
// result not met

// query Continue with CG A11G
// result met

// query Continue with CG A88T C89G A90T A91T
// result not met

// query Continue with CA A102T T111C T113C
// result not met

// query Continue with CG G26C A27T
// result not met

// query Continue with CG T108C
// result not met

// query Continue with CG A44C
// result met

// query Continue with CG G4C T5A T6A G7C
// result not met

// query Continue with CG A70G
// result not met

// query Continue with CT T104G
// result not met

// query Continue with CG G117T
// result met

// query Continue with CG T3G G4T T5G T6G
// result not met

// query Continue with CT A102C T104G T105G
// result not met

// query Continue with TA A16C G24T T30A T76A T78A T84A C87A A96C T112G T113C
// result met

// query Continue with CG T12A G13A T30A T31C T32A T86G
// result not met
